Experiment: Solubility of the compound in PBS at pH 7.4 at RT
Format: physicochemical
Let's look at some compounds and their measured solubility.
quantity: solubility (µM)

COc1ccc(/C=C2\SC(c3ccc(C)cc3)=NC2=O)cc1; 30
Cc1ccc(C2=NC(=O)/C(=C/c3cccc(S(N)(=O)=O)c3)S2)cc1; 80
COc1ccc(-c2sc(-c3ccc(C)cc3)nc2O)cc1; 50
Cc1ccc(C2=NC(=O)/C(=C/c3ccc(OC(=O)N4CCOCC4)cc3)S2)cc1; 50
Cc1ccc(C2=NC(=O)/C(=C/c3ccc(N4CCOCC4)cc3)S2)cc1; 10
COc1ccc(/C=C2/SC(c3ccc(Cl)cc3)=NC2=O)cc1; 30
COc1ccc(-c2sc(-c3ccc(Cl)cc3)nc2O)cc1; 50
Cc1ccc(C2=NC(=O)/C(=C/c3ccc(OCCN4CCOCC4)cc3)S2)cc1; 30
Cc1ccc(C2=NC(=O)/C(=C/c3ccc(OCC(=O)N4CCOCC4)cc3)S2)cc1; 50
COc1ccc(/C=C2/SC(c3cccc4ccccc34)=NC2=O)cc1; 30
COc1ccc(Cc2sc(-c3ccc(C)cc3)nc2O)cc1; 80
Cc1ccc(C2=NC(=O)/C(=C/c3ccc(O)cc3)S2)cc1; 30
COc1ccc(Cc2sc(-c3ccc(Cl)cc3)nc2O)cc1; 80

----------
Molecular target: Polyunsaturated fatty acid 5-lipoxygenase (Homo sapiens)
Sequence (P09917 whole entry): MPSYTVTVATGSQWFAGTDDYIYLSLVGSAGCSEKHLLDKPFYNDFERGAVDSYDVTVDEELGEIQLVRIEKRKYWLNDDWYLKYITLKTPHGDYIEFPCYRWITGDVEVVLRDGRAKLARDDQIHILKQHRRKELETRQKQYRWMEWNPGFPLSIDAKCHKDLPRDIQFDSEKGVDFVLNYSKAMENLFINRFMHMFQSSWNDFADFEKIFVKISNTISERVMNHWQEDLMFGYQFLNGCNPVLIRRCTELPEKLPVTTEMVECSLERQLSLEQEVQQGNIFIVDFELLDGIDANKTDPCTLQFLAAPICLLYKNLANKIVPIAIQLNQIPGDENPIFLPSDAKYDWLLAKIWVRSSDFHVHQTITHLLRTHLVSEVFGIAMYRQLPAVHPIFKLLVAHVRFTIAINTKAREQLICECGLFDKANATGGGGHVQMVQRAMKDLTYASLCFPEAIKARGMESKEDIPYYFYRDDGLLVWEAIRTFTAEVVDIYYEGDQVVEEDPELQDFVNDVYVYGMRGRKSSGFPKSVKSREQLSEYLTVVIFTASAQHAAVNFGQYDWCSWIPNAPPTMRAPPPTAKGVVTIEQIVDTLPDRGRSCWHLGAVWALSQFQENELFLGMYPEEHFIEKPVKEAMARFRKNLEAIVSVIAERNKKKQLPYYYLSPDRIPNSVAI
Assay: Inhibition of 5-LO in human PMNL using arachidonic acid as substrate assessed as product formation incubated for 15 mins prior to substrate addition measured after 10 mins by HPLC analysis
# label = bin(measured IC50), where bins are small value (below 900 nM), mid value (900 nM to below 3000 nM), large value (3000 nM or more)

COc1ccc(/C=C/C=C2\SC(c3ccc(C)cc3)=NC2=O)cc1; small value
COC(=O)/C=C/c1ccc(/C=C2\SC(c3ccc(C)cc3)=NC2=O)cc1; large value
Cc1ccc(C2=NC(=O)/C(=C/c3[nH]cnc3C)S2)cc1; large value
COc1ccc(-c2sc(-c3ccc(C)cc3)nc2O)cc1; small value
Cc1ccc(C2=NC(=O)/C(=C/C34CC5CC(CC(C5)C3)C4)S2)cc1; small value
Cc1ccc(C2=NC(=O)/C(=C/c3cccc(S(N)(=O)=O)c3)S2)cc1; mid value
COc1ccc(/C=C2\SC(c3ccc[n+](C)c3)=NC2=O)cc1; large value
COc1ccc(/C=C2\C=C(c3ccc(C)cc3)NC2=O)cc1; large value
COc1ccc(/C=C2\SC(c3ccc(C)cc3)N(C)C2=O)cc1 (centres undefined); mid value
COc1ccc(-c2sc(-c3ccc(Cl)cc3)nc2O)cc1; small value
Cc1ccc(C2=NC(=O)/C(=C/c3cccnc3)S2)cc1; mid value
Cc1ccc(-c2nc(O)c(C=C3CCCCC3)s2)cc1; small value
COc1ccc(/C=C2/SC(=S)N(c3ccc(C)cc3)C2=O)cc1; large value
Cc1ccc(C2=NC(=O)/C(=C/c3c[nH]c4ccccc34)S2)cc1; mid value
COc1ccc(-c2sc(-c3ccc(C)cc3)nc2C)cc1; mid value
Cc1ccc(C2=NC(=O)/C(=C/c3ccc(O)cc3)S2)cc1; mid value
Cc1ccc(C2=NC(=O)/C(=C/c3ncc[nH]3)S2)cc1; large value
Cc1ccc(C2=NC(=O)/C(=C/c3ccc(OC(=O)N4CCOCC4)cc3)S2)cc1; small value
Cc1ccc(C2=NC(=O)/C(=C/c3ccc(N)cc3)S2)cc1; mid value
CC(=O)c1ccc(/C=C2\SC(c3ccc(C)cc3)=NC2=O)cc1; small value
COc1ccc(/C=C2\OC(c3ccc(C)cc3)=NC2=O)cc1; large value
Cc1ccc(C2=NC(=O)/C(=C/c3ccc(C(=O)O)cc3)S2)cc1; large value
COc1ccc(/C=C2\SC(c3cccnc3)=NC2=O)cc1; mid value
COc1ccc(Cc2sc(-c3ccc(C)cc3)nc2O)cc1; small value
Cc1ccc(C2=NC(=O)/C(=C/c3ccc[nH]3)S2)cc1; mid value
Cc1ccc(C2=NC(=O)/C(=C/c3ccc(OCCN4CCOCC4)cc3)S2)cc1; mid value
COc1ccc(/N=C2\SC(c3ccc(C)cc3)=NC2=O)cc1; large value
COC(=O)c1ccc(/C=C2\SC(c3ccc(C)cc3)=NC2=O)cc1; small value
Cc1ccc(C2=NC(=O)/C(=C/c3ccc(S(C)(=O)=O)cc3)S2)cc1; large value
Cc1ccc(C2=NC(=O)/C(=C/c3cccs3)S2)cc1; mid value
COc1ccc(/C=C2\N=C(c3ccc(C)cc3)NC2=O)cc1; mid value
COc1ccc(/C=C2\SC(c3cnccn3)=NC2=O)cc1; mid value
COc1ccc(Cc2sc(-c3ccc(Cl)cc3)nc2O)cc1; small value
